# system-name: dAsCas12a S542R (Acidaminococcus sp., UniProt U2UMQ6 1-1307, S542R;D908A;E993A;D1235A)
# protocol-details: Spec-seq (native PAGE EMSA with sequencing of bound and unbound); 25 mM Tris-HCl pH 7.4, 150 mM KCl, 5 mM MgCl2, 10% glycerol, 1 mM DTT, 40 ng/uL salmon sperm DNA; 400 nM Cas12a, 480 nM crRNA, 50 nM library, 37 C 1 h; native PAGE at room temperature; high values mean tight binding;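 further: relative affinity from the bound to unbound sequence frequency ratio in Spec-seq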
# condition-info: protein: recombinant
outcome-measure: binding signal (lnKA)

binder	unit-of-measure	value-reported
CATC (dsDNA) DNA 1: GCTATCTAGTGCTCAGTACGCACTGCATCAGGAAACTTCTGGCAGGACCAGGTCATGAGATCGGAAGAGCACACGTCTGAACTCCAGTCA DNA 2: TGACTGGAGTTCAGACGTGTGCTCTTCCGATCTCATGACCTGGTCCTGCCAGAAGTTTCCTGATGCAGTGCGTACTGAGCACTAGATAGC RNA: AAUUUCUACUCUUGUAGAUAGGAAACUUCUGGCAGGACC	lnKA	-8.13
AGTT (dsDNA) DNA 1: GCTATCTAGTGCTCAGTACGCACTGAGTTAGGAAACTTCTGGCAGGACCAGGTCATGAGATCGGAAGAGCACACGTCTGAACTCCAGTCA DNA 2: TGACTGGAGTTCAGACGTGTGCTCTTCCGATCTCATGACCTGGTCCTGCCAGAAGTTTCCTAACTCAGTGCGTACTGAGCACTAGATAGC RNA: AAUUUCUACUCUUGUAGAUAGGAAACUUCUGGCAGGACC	lnKA	-8.18
AACA (dsDNA) DNA 1: GCTATCTAGTGCTCAGTACGCACTGAACAAGGAAACTTCTGGCAGGACCAGGTCATGAGATCGGAAGAGCACACGTCTGAACTCCAGTCA DNA 2: TGACTGGAGTTCAGACGTGTGCTCTTCCGATCTCATGACCTGGTCCTGCCAGAAGTTTCCTTGTTCAGTGCGTACTGAGCACTAGATAGC RNA: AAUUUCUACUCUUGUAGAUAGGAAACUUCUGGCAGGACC	lnKA	-8.12
